Molecular target: hNPY2R (Homo sapiens)
Construct: expressed in transfected cells; host or cells: HEK-293 cells carrying a CRE-luciferase reporter gene
Sequence (P49146 whole entry): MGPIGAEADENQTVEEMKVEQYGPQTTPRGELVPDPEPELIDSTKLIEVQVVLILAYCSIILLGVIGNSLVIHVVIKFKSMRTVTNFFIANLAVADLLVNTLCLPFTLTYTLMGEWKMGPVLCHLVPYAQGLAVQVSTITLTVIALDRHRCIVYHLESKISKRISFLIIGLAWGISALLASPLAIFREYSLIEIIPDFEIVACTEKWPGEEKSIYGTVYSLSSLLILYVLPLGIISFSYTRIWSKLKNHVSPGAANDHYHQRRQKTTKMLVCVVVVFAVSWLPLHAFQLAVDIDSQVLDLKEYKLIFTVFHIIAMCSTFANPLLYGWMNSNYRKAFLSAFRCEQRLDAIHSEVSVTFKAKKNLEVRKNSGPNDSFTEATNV
Assay: hNPY2R CreLuc reporter gene assay in 0.5% and 100% plasma
Assay type: cell-based
Settings: CreLuc reporter gene assay, 0.5% human plasma; read-out: hNPY2R 0.5% hP
Description: Example 1: hGLPR/hGIPR/hNPY2R CreLuc Assay in 0.5% and 100% Plasma CHO and HEK-293 recombinant cell lines express a luciferase reporter gene under control of the cAMP responsive element (CRE). […] Following incubation, assay plates are equilibrated to room temperature, followed by addition of 25 μl of Bright-GIo™ Luciferase reagent, incubation at room temperature for 10 minutes and analysis of luminescence (Envision Reader). […]
Starred links: 1 amine or outer side, 2 acyl side, 3 side chain; linkers in the order of their positions; H or OH if unused. Non-standard residues stand in square brackets, D forms with d. Groups on a side chain read outwards from the residue. *: point of attachment. C20 diacid = O=C(O)CCCCCCCCCCCCCCCCCCC(=O)*; γGlu = O=C(O)[C@H](CCC(=O)[*:2])N[*:1]; εLys = N[C@@H](CCCCN[*:1])C(=O)[*:2]; Aib = CC(C)(N)C(=O)O

- SUBSTANCE: "H-Y[Aib]EGTFTSDYSI[Aib]LEKQAQ[Aib]AFVEWLIK([γGlu-γGlu-γGlu-γGlu-γGlu-C20 diacid])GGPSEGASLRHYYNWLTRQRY-NH2 [Compound 289]"
  EC50: "11.1 nM"
- SUBSTANCE: "H-Y[Aib]EGTFTSDYSI[Aib]LEKQAQ[dD]AFVEWLIK([εLys-γGlu-γGlu-γGlu-γGlu-γGlu-γGlu-C20 diacid])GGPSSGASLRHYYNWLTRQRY-NH2 [Compound 211]"
  EC50: "11.2 nM"
- SUBSTANCE: "H-Y[Aib]EGTFTSDYSI[Aib]LEKQAQ[Aib]AFVEWLIK([εLys-γGlu-γGlu-γGlu-γGlu-γGlu-γGlu-C20 diacid])GGPSSGIELRHFLNHLTRQRY-NH2 [Compound 2]"
  EC50: "> 99.9 nM"

----------
Here the recorded pEC50 is given for each entry.
target: hGIPR (Homo sapiens, UniProt P48546); construct: expressed in transfected cells; host or cells: CHO cells carrying a CRE-luciferase reporter gene; experiment: hGIPR CreLuc reporter gene assay in 0.5% and 100% plasma; assay type: cell-based; conditions: CreLuc reporter gene assay, 100% human plasma; read-out: hGIPR 100% hP
Sequence (P48546 22-466): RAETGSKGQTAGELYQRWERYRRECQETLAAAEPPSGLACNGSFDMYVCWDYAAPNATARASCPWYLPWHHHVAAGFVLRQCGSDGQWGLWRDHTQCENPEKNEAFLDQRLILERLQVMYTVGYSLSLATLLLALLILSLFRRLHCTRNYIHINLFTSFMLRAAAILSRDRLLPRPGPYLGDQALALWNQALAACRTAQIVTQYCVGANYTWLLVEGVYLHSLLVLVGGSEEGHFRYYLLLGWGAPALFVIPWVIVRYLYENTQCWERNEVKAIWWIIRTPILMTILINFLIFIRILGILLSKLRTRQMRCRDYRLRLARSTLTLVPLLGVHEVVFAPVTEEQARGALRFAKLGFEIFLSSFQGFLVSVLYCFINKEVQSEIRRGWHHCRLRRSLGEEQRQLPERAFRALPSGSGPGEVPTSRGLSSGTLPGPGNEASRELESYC
pEC50: −log10 of the molar value. Starred links: 1 amine or outer side, 2 acyl side, 3 side chain; linkers in the order of their positions; H or OH if unused. Non-standard residues stand in square brackets, D forms with d. Groups on a side chain read outwards from the residue. *: point of attachment. C20 diacid = O=C(O)CCCCCCCCCCCCCCCCCCC(=O)*; C18 diacid = O=C(O)CCCCCCCCCCCCCCCCC(=O)*; γGlu = O=C(O)[C@H](CCC(=O)[*:2])N[*:1]; εLys = N[C@@H](CCCCN[*:1])C(=O)[*:2]; AEEA = NCCOCCOCC(=O)O; Aib = CC(C)(N)C(=O)O
RECORDED ENDPOINT: pEC50

- SUBSTANCE: "H-Y[Aib]EGTFTSDYSI[Aib]LEKQAQ[Aib]AFVEWLIK([εLys-γGlu-γGlu-γGlu-γGlu-γGlu-γGlu-C20 diacid])GGPSSGASL[Aib]HYYNWLTRQRY-NH2 [Compound 129]"
  READOUT NUMBER: 9.30
- SUBSTANCE: "H-Y[Aib]EGTFTSDYSI[Aib]LEKQAQ[Aib]AFVEWLIK([εLys-γGlu-γGlu-γGlu-γGlu-γGlu-γGlu-C20 diacid])GGPSSGATLRHYYNWLTRQRY-NH2 [Compound 91]"
  READOUT NUMBER: 8.76
- SUBSTANCE: "H-Y[Aib]EGTFTSDYSI[Aib]LEKQAQ[Aib]AFVQWLIK([AEEA-AEEA-γGlu-γGlu-γGlu-γGlu-C18 diacid])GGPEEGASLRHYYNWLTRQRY-NH2 [Compound 146]"
  READOUT NUMBER: 9.14
- SUBSTANCE: "H-Y[Aib]EGTFTSDYSI[Aib]LEKQAQ[Aib]AFVEWLIK([εLys-γGlu-γGlu-γGlu-γGlu-γGlu-γGlu-C20 diacid])GGPSSGES[Aib]RHYYNWLTRQRY-NH2 [Compound 49]"
  READOUT NUMBER: 8.90
- SUBSTANCE: "H-Y[Aib]EGTFTSDYSI[Aib]LEKQAQ[Aib]AFVQWLIK([AEEA-AEEA-γGlu-γGlu-γGlu-γGlu-γGlu-C20 diacid])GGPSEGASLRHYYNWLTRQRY-NH2 [Compound 228]"
  READOUT NUMBER: 8.82

Data origin: patent US20240247080A1
